Record form. Attribute: IC50. Fill in for each entry.
Biological target: GP IIb IIIa (Homo sapiens, UniProt P05106+P08514)
Construct: from tissue; host or cells: outdated human platelets
Sequence (P08514 32-887 limits assumed): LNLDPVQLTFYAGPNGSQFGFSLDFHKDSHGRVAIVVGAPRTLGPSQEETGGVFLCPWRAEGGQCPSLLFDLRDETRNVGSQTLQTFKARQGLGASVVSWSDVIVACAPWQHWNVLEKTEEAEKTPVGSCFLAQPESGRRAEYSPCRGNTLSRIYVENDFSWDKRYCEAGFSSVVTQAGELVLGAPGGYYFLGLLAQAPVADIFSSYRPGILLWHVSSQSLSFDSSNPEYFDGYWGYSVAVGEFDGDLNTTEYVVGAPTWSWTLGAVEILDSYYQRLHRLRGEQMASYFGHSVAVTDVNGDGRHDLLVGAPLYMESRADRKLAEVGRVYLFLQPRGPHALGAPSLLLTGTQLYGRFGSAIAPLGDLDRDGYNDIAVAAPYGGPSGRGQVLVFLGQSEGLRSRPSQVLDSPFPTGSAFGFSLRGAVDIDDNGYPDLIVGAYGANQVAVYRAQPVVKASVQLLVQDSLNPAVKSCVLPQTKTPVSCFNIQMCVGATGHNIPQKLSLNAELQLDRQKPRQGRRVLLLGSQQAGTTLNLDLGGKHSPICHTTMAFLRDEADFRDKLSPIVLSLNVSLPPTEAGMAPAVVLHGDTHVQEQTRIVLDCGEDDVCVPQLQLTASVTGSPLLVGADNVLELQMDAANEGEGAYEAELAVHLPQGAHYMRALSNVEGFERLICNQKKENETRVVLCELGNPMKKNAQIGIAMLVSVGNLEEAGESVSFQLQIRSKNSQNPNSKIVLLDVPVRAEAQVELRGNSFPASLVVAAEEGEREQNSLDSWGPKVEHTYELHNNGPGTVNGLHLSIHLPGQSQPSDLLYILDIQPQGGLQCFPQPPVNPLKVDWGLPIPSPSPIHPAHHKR
Sequence (P08514 891-1039 partner limits assumed): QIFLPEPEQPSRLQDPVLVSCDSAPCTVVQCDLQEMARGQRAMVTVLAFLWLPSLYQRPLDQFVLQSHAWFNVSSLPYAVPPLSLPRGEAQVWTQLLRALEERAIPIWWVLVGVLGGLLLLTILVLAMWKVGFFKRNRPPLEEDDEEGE
Sequence (P05106 27-788): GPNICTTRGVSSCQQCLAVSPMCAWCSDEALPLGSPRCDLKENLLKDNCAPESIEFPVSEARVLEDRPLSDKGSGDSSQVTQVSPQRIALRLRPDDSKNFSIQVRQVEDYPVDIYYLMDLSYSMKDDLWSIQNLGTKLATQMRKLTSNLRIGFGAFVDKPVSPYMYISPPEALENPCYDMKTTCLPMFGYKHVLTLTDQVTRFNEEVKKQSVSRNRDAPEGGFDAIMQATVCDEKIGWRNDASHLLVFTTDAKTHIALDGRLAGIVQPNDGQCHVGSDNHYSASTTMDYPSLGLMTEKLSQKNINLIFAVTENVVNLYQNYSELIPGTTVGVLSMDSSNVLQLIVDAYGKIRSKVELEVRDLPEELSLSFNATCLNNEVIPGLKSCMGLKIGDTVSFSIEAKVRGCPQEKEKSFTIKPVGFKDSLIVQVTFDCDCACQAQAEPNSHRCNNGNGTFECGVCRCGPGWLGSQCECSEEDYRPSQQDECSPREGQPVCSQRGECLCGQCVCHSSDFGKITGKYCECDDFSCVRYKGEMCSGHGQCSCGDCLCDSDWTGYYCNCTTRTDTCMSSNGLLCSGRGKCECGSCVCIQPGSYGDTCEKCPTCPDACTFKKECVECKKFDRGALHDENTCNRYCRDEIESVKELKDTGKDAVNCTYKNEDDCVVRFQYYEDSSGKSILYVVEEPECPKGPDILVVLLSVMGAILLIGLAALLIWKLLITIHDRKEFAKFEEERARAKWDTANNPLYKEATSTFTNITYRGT
Test: Fibrinogen-GP IIb IIIa Receptor ELISA Binding Assay (Fg/IIbIIIa)
Conditions: Examples 29 and 30, Cmpd # tables; read-out: IC50 (μM) Fg/IIbIIIa
Numbers only, in µM.

N=C(N)NCCCCCCc1ccc2c(c1)C(=O)N(CCC(=O)O)CC(=O)N2Cc1cccc(NC(=O)CCCCCNC(=N)N)c1; 0.013
N=C(N)NCCCCCCc1ccc2c(c1)C(=O)N(CCC(=O)O)CC(=O)N2Cc1cccc(NC(=O)CCCCNC(=N)N)c1; 0.013
N=C(N)NCCCCCCc1ccc2c(c1)C(=O)N(CCC(=O)O)CC(=O)N2Cc1cccc(NC(=O)CNC(=N)N)c1; 0.017

Would you kindly look at the next entry?
Query :: Using the record for N=C(N)NCCCC#Cc1ccc2c(c1)C(=O)N(CCC(=O)O)CC(=O)N2Cc1cccc(NC(=O)CNC(=N)N)c1 , state its measured IC50.
Result :: 0.018
